target-desc: STING (Homo sapiens, UniProt Q86WV6, G230A/H232R/R293Q/R71H)
Sequence (Q86WV6 whole entry R71H/G230A/H232R/R293Q): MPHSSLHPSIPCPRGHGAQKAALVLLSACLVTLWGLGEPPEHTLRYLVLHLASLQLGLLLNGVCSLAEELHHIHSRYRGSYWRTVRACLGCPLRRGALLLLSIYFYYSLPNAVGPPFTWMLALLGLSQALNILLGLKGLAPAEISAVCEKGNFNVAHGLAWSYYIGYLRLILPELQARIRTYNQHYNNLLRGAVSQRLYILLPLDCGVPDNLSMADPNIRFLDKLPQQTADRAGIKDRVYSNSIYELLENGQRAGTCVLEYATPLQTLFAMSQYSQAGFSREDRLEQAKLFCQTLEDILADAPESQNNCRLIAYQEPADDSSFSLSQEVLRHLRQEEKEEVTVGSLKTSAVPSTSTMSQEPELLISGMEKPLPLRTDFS
assay-procedure: STING reporter assay: luciferase reporter activity in THP1-Dual KO-IFNAR2 cells stimulated with 2'3'cGAMP
protocol-conditions: 2′3′cGAMP 15 μM final, 24h, read-out: hSTING: EC50
Description: STING pathway activation by the compounds described herein was measured using THIP1-Dua1™ cells (KO-IFNAR2). […] 2 mL of solution A and 2 ml Solution B was mixed and incubated for 20 min at room temperature (RT). […] Luciferase reporter activity was then measured. EC50 values were calculated by using standard methods known in the art. […] Luciferase reporter activity was then measured. EC50 values were calculated by using standard methods known in the art.
Each item that follows carries a reported EC50.

Cc1ccc(CNC(=O)C(=O)Nc2c[nH]c3ccc(Br)cc23)cc1C(F)(F)F [Compound 124]
0.2 to 1 µM
O=C(Nc1c[nH]c2ccc(Cl)cc12)C(=O)N[C@H]1CC[C@H](Oc2ccc(C(F)(F)F)cc2)CC1 [Compound 213]
0.04 to 0.2 µM
CC(CN(C)c1ccccn1)NC(=O)C(=O)Nc1c[nH]c2cc(F)c(F)cc12 (stereo not shown) [Compound 284]
1 to 5 µM

// switching to the query compound
Form: item C[C@H](NC(=O)C(=O)Nc1c[nH]c2cc(F)c(F)cc12)c1ccc(C(F)(F)F)cc1 (stereo in doubt) [Compound 329] ; test system STING (Homo sapiens, UniProt Q86WV6, G230A/H232R/R293Q/R71H); EC50: 0.04 to 0.2 µM

====

target-desc: STING (Homo sapiens, UniProt Q86WV6, G230A/H232R/R293Q/R71H)
assay-procedure: STING reporter assay: luciferase reporter activity in THP1-Dual KO-IFNAR2 cells stimulated with 2'3'cGAMP
protocol-conditions: 2′3′cGAMP 15 μM final, 24h, read-out: hSTING: EC50
Below, each entry is listed with its recorded EC50.

O=C(NCCC1CCC(F)(F)CC1)C(=O)Nc1c[nH]c2ccccc12
1 to 5 µM

Pending compound:
Documented EC50 of O=C(NCCC1(C(F)(F)F)CC1)C(=O)Nc1c[nH]c2cc(F)c(F)cc12 : 0.2 to 1 µM

====

The following molecules are listed with their measured EC50 values.
target-desc: STING (Homo sapiens, UniProt Q86WV6, G230A/H232R/R293Q/R71H)
assay-procedure: STING reporter assay: luciferase reporter activity in THP1-Dual KO-IFNAR2 cells stimulated with 2'3'cGAMP
protocol-conditions: 2′3′cGAMP 15 μM final, 24h, read-out: hSTING: EC50

Consider the reported EC50 for these molecules:
O=C(NCc1cc(C(F)(F)F)c(Cl)cn1)C(=O)Nc1c[nH]c2cc(F)c(F)cc12
40 to 200 nM
O=C(NCCOc1ccc(C(F)(F)F)nc1)C(=O)Nc1c[nH]c2cc(F)c(F)cc12
200 to 1000 nM

The molecule listed as O=C(NCc1ccc(C(F)(F)F)nc1)C(=O)Nc1c[nH]c2cc(F)c(F)cc12 has a reported EC50 of 200 to 1000 nM

Looking up O=C(NCc1cnc(C(F)(F)F)c(Cl)c1)C(=O)Nc1c[nH]c2cc(F)c(F)cc12 , I see its EC50 listed as 200 to 1000 nM

// EC50 value for O=C(NCC1CCc2ccccc2O1)C(=O)Nc1c[nH]c2cc(F)c(F)cc12 (centres unmarked) : 200 to 1000 nM

Value of EC50 reported for the molecule N#Cc1ccc(OC2CCC(NC(=O)C(=O)Nc3c[nH]c4cc(F)c(F)cc34)CC2)cc1 (centres unmarked) is 200 to 1000 nM

Per the record, CN(C(=O)C(=O)Nc1c[nH]c2cc(F)c(F)cc12)c1ccc(C(F)(F)F)cc1 has EC50 of 1000 to 5000 nM

Query O=C(Nc1c[nH]c2cc(F)c(F)cc12)C(=O)N[C@H]1CCCC(Oc2ccc(C(F)(F)F)cc2)C1 (some centres unmarked) yields EC50 of 200 to 1000 nM

====

target-desc: STING (Homo sapiens, UniProt Q86WV6, G230A/H232R/R293Q/R71H)
assay-procedure: STING reporter assay: luciferase reporter activity in THP1-Dual KO-IFNAR2 cells stimulated with 2'3'cGAMP
protocol-conditions: 2′3′cGAMP 15 μM final, 24h, read-out: hSTING: EC50
value-kind: EC50

Here is how some molecules turned out for EC50.
O=C(Nc1c[nH]c2cc(F)c(F)cc12)C(=O)NC1CCOC2(CCCC2)C1 (centres unmarked) [Compound 278]
1000 to 5000 nM
O=C(NCCc1ccc(C(F)(F)F)cn1)C(=O)Nc1c[nH]c2cc(F)c(F)cc12 [Compound 269]
200 to 1000 nM
O=C(Nc1c[nH]c2cc(F)c(F)cc12)C(=O)NC1CC(Oc2ccc(C(F)(F)F)cc2)C1 (centres unmarked) [Compound 218]
200 to 1000 nM
O=C(Nc1ccc(OCC(F)(F)F)nc1)C(=O)Nc1c[nH]c2cc(F)c(F)cc12 [Compound 157]
200 to 1000 nM
O=C(Nc1c[nH]c2cc(F)c(F)cc12)C(=O)N[C@H]1CCN(c2ccc(C(F)(F)F)cn2)C1 [Compound 264]
200 to 1000 nM
O=C(NCc1ccc2ccccc2n1)C(=O)Nc1c[nH]c2cc(F)c(F)cc12 [Compound 304]
200 to 1000 nM
O=C(NCc1ccc(-c2ccccc2C(F)(F)F)cc1)C(=O)Nc1c[nH]c2cc(F)c(F)cc12 [Compound 108]
200 to 1000 nM

get_value(item= CC[C@H]1CC[C@H](NC(=O)C(=O)Nc2c[nH]c3cc(F)c(F)cc23)CC1 [Compound 186] , readout=EC50) returns 40 to 200 nM

====

target-desc: STING (Homo sapiens, UniProt Q86WV6, G230A/H232R/R293Q/R71H)
assay-procedure: STING reporter assay: luciferase reporter activity in THP1-Dual KO-IFNAR2 cells stimulated with 2'3'cGAMP
protocol-conditions: 2′3′cGAMP 15 μM final, 24h, read-out: hSTING: EC50
pEC50: −log10 of the molar value.
value-kind: pEC50

Below are worked cases with known answers.
O=C(NCCC1CC2CCC1C2)C(=O)Nc1c[nH]c2cc(F)c(F)cc12 (stereo not shown)
6.00 to 6.70
Cc1cc(NC(=O)C(=O)Nc2c[nH]c3cc(F)c(-c4cnn(C)c4)cc23)cnc1N1CCC(F)(F)CC1
5.30 to 6.00
O=C(Nc1c[nH]c2cc(F)c(F)cc12)C(=O)NC(c1ccccc1)C(F)(F)F (single isomer, unassigned) [Compound 239]
6.00 to 6.70
O=C(NCc1ccc(C(F)(F)F)c(Cl)c1)C(=O)Nc1c[nH]c2ccc(CCO)cc12
6.00 to 6.70
COc1ccc(CNC(=O)C(=O)Nc2c[nH]c3cc(F)c(F)cc23)cc1C(F)(F)F
6.00 to 6.70

Recorded result, CN(CCCNC(=O)C(=O)Nc1c[nH]c2cc(F)c(F)cc12)c1ccccc1 , pEC50: 6.00 to 6.70

Item: Cc1ccc(CNC(=O)C(=O)Nc2c[nH]c3ccc(-c4cnn(C(C)C)c4)cc23)cc1C(F)(F)F | pEC50: 6.00 to 6.70

Just so you know, measured pEC50 for O=C(Nc1c[nH]c2cc(F)c(F)cc12)C(=O)NC1CCN(Cc2cccc(C(F)(F)F)c2)C1 (stereo not shown) came out at 6.00 to 6.70

So for O=C(NC[C@@H](c1ccccc1)C(F)F)C(=O)Nc1c[nH]c2cc(F)c(F)cc12 , the logged pEC50 turned out to be 6.00 to 6.70

So for CC(NC(=O)C(=O)Nc1c[nH]c2cc(F)c(F)cc12)c1cccc(OC(F)(F)F)c1 (stereo not shown) , the logged pEC50 turned out to be 6.00 to 6.70

Per the records, this compound ( Cc1ccc(CNC(=O)C(=O)Nc2c[nH]c3cc(F)c(F)cc23)cc1C(F)(F)F ) has pEC50 equal to 6.70 to 7.40

====

target-desc: STING (Homo sapiens, UniProt Q86WV6, G230A/H232R/R293Q/R71H)
assay-procedure: STING reporter assay: luciferase reporter activity in THP1-Dual KO-IFNAR2 cells stimulated with 2'3'cGAMP
protocol-conditions: 2′3′cGAMP 15 μM final, 24h, read-out: hSTING: EC50
value-kind: EC50

O=C(NCCC1CCCCC1)C(=O)Nc1c[nH]c2cc(F)c(F)cc12 [Compound 118]
40 to 200 nM
Cn1cc(NC(=O)C(=O)NCc2ccc(C(F)(F)F)c(Cl)c2)c2cc(F)c(F)cc21 [Compound 170]
5000 to 100000 nM
CCC(NC(=O)C(=O)Nc1c[nH]c2cc(F)c(F)cc12)c1cccc(C(F)(F)F)c1 (centres unmarked) [Compound 311]
200 to 1000 nM
O=C(NCc1cc(C(F)(F)F)ccn1)C(=O)Nc1c[nH]c2cc(F)c(F)cc12 [Compound 126]
40 to 200 nM
O=C(Nc1c[nH]c2cc(F)c(F)cc12)C(=O)NC1CCC2(CCCCC2)C1 (single isomer, unassigned) [Compound 247]
200 to 1000 nM

Looking up O=C(Nc1ccc(C(F)(F)F)cc1)C(=O)Nc1c[nH]c2cc(F)c(F)cc12 [Compound 115] , I see its EC50 listed as 40 to 200 nM

Recorded EC50 (compound O=C(NCC(c1ccccc1)n1ccnc1)C(=O)Nc1c[nH]c2cc(F)c(F)cc12 (centres unmarked) [Compound 277] ): 5000 to 100000 nM

For this compound ( O=C(Nc1c[nH]c2cc(F)c(F)cc12)C(=O)NC1CCC2(CCCC2)C1 (single isomer, unassigned) [Compound 246] ), measured EC50 is 200 to 1000 nM
